- assay-name: recombinant barcode read abundance after kanamycin selection (control-corrected) (log10(CPM+1)); higher = more efficient recombination; sequences stand for … in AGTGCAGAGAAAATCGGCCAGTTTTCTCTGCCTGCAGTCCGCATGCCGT…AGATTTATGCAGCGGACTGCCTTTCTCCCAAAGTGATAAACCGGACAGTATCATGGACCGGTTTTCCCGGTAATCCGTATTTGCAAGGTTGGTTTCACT; site = the 11-nt target;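 further: IS621 recombinase and bridge RNA in Escherichia coli cells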
Assign classes using reported recombinant barcode read abundance (log10) values and the ranges bottom bin = under 0.08, middle bin = from 0.08 up to 0.5, top bin = 0.5 and over, please.

Worked set:
record-sequence | label-class
GCAGGGTCTTGGGTTCTAACCTGTTGCCT (site GCAAGATCTAG) | middle bin
ACGACCGCTTGGGTTCTAACCTGTTGCCT (site ACGAGCGCTAG) | middle bin
AGTCCTACTTGGGTTCTAACCTGTTGCAG (site AGGCTTACTCT) | middle bin
GTAATGACTTGGGTTCTAACCTGTTGCCT (site GTAATGACTAG) | top bin
GTGTAGTCTTGGGTTCTAACCTGTTGCCG (site GTGTAGTCTCG) | top bin
CTGGCGTCTTGGGTTCTAACCTGTTGCCT (site CTGGGGTCTAG) | bottom bin

Enquiry: Please report the category associated with CGAGATCCTTGGGTTCTAACCTGTTGCAT (site CGAGGTACTAT) , nothing else.
Return: bottom bin

Enquiry: Please report the category associated with ATGTGCTCTTGGGTTCTAACCTGTTGCCT (site AGGTGCTCTAG) , nothing else.
Return: middle bin

Enquiry: Please report the category associated with TCTACATCTTGGGTTCTAACCTGTTGCCT (site TCTACATCTAG) , nothing else.
Return: bottom bin

Enquiry: Please report the category associated with ACTTAGACTTGGGTTCTAACCTGTTGCCC (site ACTTAGACTTG) , nothing else.
Return: bottom bin

Enquiry: Please report the category associated with AAGTTTACTTGGGTTCTAACCTGTTGCCT (site AAGTTTACTAA) , nothing else.
Return: bottom bin

Enquiry: Please report the category associated with CCGGACCCTTGGGTTCTAACCTGTTGCTG (site CCGGACCCTCA) , nothing else.
Return: top bin

Enquiry: Please report the category associated with TAGTAGTCTTGGGTTCTAACCTGTTGCCT (site TAGTAGTCTAG) , nothing else.
Return: top bin

Enquiry: Please report the category associated with TCCCTATCTTGGGTTCTAACCTGTTGCCT (site TGCCTATCTAG) , nothing else.
Return: bottom bin

Source listed as the supplement of paper PMC11208160.
